System: SEM cells
METHOD DESCRIPTION: cell viability relative to DMSO control; higher = less cytotoxic
EXPERIMENTAL CONTEXT: RPMI 5 mM glucose + 10% dialyzed FBS; 48 h; 46.1 µM
Listed next: entries and their corresponding cell viability.
The reply should contain only the number, in %.

Reference set, count: 2
OC[C@H]1O[C@H]([C@H](O)[C@@H]1O)N2\C=C/C(=O)NC2=O    88.3
CC(C)c1ccc2c(c1)c(SC(C)(C)C)c(CC(C)(C)C(=O)[O-])n2Cc1ccc(Cl)cc1    89.9

Would you kindly look at the next entry?
State the recorded cell viability for this entry: ClC1=CC=C(C=C1)C(C#N)C2=C(Cl)C=C(C=C2Cl)N3\N=C/C(=O)NC3=O (stereo not drawn)
89.7

---

Listed next: entries and their corresponding cell viability.
Tested on: SEM cells
METHOD DESCRIPTION: cell viability relative to DMSO control; higher = less cytotoxic
EXPERIMENTAL CONTEXT: RPMI 5 mM glucose + 10% FBS; 48 h; 0.0632 µM
The reply should contain only the number, in %.

Reference set, count: 5
OC(c1cc(C(F)(F)F)nc2c(C(F)(F)F)cccc12)C1CCCCN1 (centres undefined)    133
O=c1[nH]c(=O)n([C@H]2C[C@H](O)[C@@H](CO)O2)cc1/C=C/Br    123
O=C(O)C1(Cc2cccc(Nc3nccs3)n2)CCC(Oc2cccc(Cl)c2F)CC1 (centres undefined)    114
COc1cc(F)c(F)c(Nc2ccc(I)cc2F)c1N[S+](=O)([O-])C1(C[C@H](O)CO)CC1    119
CCN1CCN(c2ccc(Nc3cc(N(C)C(=O)Nc4c(Cl)c(OC)cc(OC)c4Cl)ncn3)cc2)CC1    84.2

State the recorded cell viability for this entry: CC[C@H](NC1=C2N=C[NH]C2=NC=N1)C/3=N/C4=C(C(=CC=C4)F)C(=O)N3C5=CC=CC=C5
111

How about NC\1=N\C(=O)N(\C=C1)[C@@H]2O[C@H](CO)[C@@H](O)[C@@H]2O ?
11.4

How about C[C@@H](Oc1cc(-c2cnn(C3CCNCC3)c2)cnc1N)c1c(Cl)ccc(F)c1Cl ?
82.5

How about CC(C)OC(=O)/C1=C/N(CC(C)(C)C2=C1[NH]C3=CC=CC=C23)C(=O)C4=CC=C(F)C(=C4)F ?
79.8

How about O=C1NC(=O)/C(=C/c2ccc3nccc(-c4ccncc4)c3c2)S1 ?
108

How about N[S+]([O-])(=O)C1=CC=C(NC/2=C/C(=O)C3=CC=CC=C3C2=O)C=C1 ?
87.5

How about Cc1coc2c1C(=O)C(=O)c1c-2ccc2c(C)cccc12 ?
91.3

How about CNCC(O)c1ccc(O)cc1 (centres undefined) ?
112

How about CC(C)OC(=O)C(C(=O)OC(C)C)=C1S\C=C/S1 ?
122

---

System: NOMO1
METHOD DESCRIPTION: cell viability relative to DMSO control; higher = less cytotoxic
EXPERIMENTAL CONTEXT: RPMI 5 mM glucose + 10% dialyzed FBS; 48 h; 5.12 µM
VALUE TYPE: cell viability (%)
The reply should contain only the number, in %.

Reference set, count: 3
CCOC(=O)N1CCN(/[N+]([O-])=N/Oc2ccc([N+](=O)[O-])cc2C#N)CC1    30.8
CCC[S+]([O-])c1ccc2[nH]c(NC(=O)OC)nc2c1 (configuration not stated)    81.2
C[C@](Cc1c[nH]c2ccccc12)(NC(=O)OC1C2CC3CC(C2)CC1C3)C(=O)NC[C@H](NC(=O)CCC(=O)O)c1ccccc1 (some centres not stated)    139

State the recorded cell viability for this entry: Cc1nn(Cc2ccccc2Cl)c(C)c1CN(C)CC(O)COc1ccc(Cl)cc1 (configuration not stated)
83.9

How about COC(=O)C[C@](O)(CCCC(C)(C)O)C(=O)O[C@@H]1C(OC)=CC23CCCN2CCc2cc4c(cc2[C@H]13)OCO4 (some centres not stated) ?
102

How about C[C@](O)(CS(=O)(=O)c1ccc(F)cc1)C(=O)Nc1ccc(C#N)c(C(F)(F)F)c1 ?
129

How about CC[S+](=O)([O-])c1cccc(-c2cc(C(=O)NC3CCN(C)CC3)c(C)c3[nH]c4ncc(C)cc4c23)c1 ?
80.3

How about COc1cc(OC2CCN(C)CC2)ccc1Nc1ncc2c(n1)n(C1CCCC1)c(=O)n2C ?
91.7

How about OC[C@@H](O)[C@@H](O)[C@H](O)[C@@H](O)CO ?
135

How about C[C@]12COC(=O)C[C@@H]1CC[C@@H]1[C@@H]2CC[C@@]2(C)[C@H]1CC[C@]2(C)O ?
88.3

How about Nc1ncnc2c1ncn2[C@@H]1O[C@@H](CO)[C@H](O)[C@@H]1O ?
127

How about Cc1ccccc1C(=O)c1ccc(Nc2ccc(Br)cc2N)cc1Cl ?
114
